Recorded measurements of Zone of Clearing (cm) B. subtilis, one per entry
System: Bacillus subtilis
Test: agar diffusion-zone of inhibition assay
Assay type: cell-based
Conditions: Example 1, 0.5 μg spotted
Please reply with the bare figure in cm and do not write the unit itself.

Example entries and their recorded answers appear below.
- molecule: "COc1ccc(O[C@@H]2OC([C@H](O)C[C@H]3O[C@@H](O[C@H]4O[C@@H](CO)[C@@H](O)C(O)C4NC(C)=O)[C@H](NC(=O)/C=C/CCCCCCCCCC(C)C)C(O)C3O)[C@@H](O)[C@H]2O)cc1 (some centres unmarked)"
  Zone of Clearing (cm) B. subtilis: 0
- molecule: "[N-]=[N+]=NC1C(O)[C@H](O)C(CO)O[C@@H]1OC1O[C@H](C[C@@H](O)C2O[C@@H](n3ccc(=O)[nH]c3=O)[C@H](O)[C@@H]2O)C(O)C(O)[C@H]1N1C(=O)c2ccccc2C1=O (some centres unmarked)"
  Zone of Clearing (cm) B. subtilis: 0
- molecule: "CC(C)CCCCCCCCC/C=C/C(=O)N[C@@H]1C(O)C(O)[C@@H](C[C@@H](O)C2O[C@@H](n3ccc(=O)[nH]c3=O)[C@H](O)[C@@H]2O)O[C@H]1O[C@H]1O[C@@H](CO)[C@@H](O)C(O)C1N=[N+]=[N-] (some centres unmarked)"
  Zone of Clearing (cm) B. subtilis: 1.6

Tell me its Zone of Clearing (cm) B. subtilis given COc1ccc(O[C@@H]2OC([C@H](O)C[C@H]3OC(O[C@H]4OC(CO)[C@@H](O)C(O)C4NC(C)=O)[C@H](N)C(O)C3O)[C@@H](O)[C@H]2O)cc1 (some centres unmarked) as the entry.
0

Tell me its Zone of Clearing (cm) B. subtilis given CC(=O)NC1C(O)[C@H](O)C(CO)O[C@@H]1OC1O[C@H](C[C@@H](O)C2O[C@@H](n3ccc(=O)[nH]c3=O)[C@H](O)[C@@H]2O)C(O)C(O)[C@H]1N (some centres unmarked) as the entry.
0

###

Tested on: Bacillus subtilis
Experiment: agar diffusion-zone of inhibition assay
Type: cell-based
Settings: Example 1, 0.5 μg spotted
Recorded measurements of Zone of Clearing (cm) B. subtilis, one per entry
Please reply with the bare figure in cm and do not write the unit itself.

- compound: "CC(=O)NC1C(O)[C@H](O)C(CO)O[C@@H]1OC1O[C@H](C[C@@H](O)C2O[C@@H](n3ccc(=O)[nH]c3=O)[C@H](O)[C@@H]2O)C(O)C(O)[C@H]1NC(C)=O (stereo partly shown) [Compound 9]"
  measured_number: 0

Tell me its Zone of Clearing (cm) B. subtilis given CC(=O)NC1C(O)[C@H](O)[C@H](CO)O[C@@H]1O[C@@H]1O[C@H](C[C@@H](O)C2O[C@@H](n3ccc(=O)[nH]c3=O)[C@H](O)[C@@H]2O)C(O)C(O)[C@H]1NC(=O)/C=C/CCCCCCCCCC(C)C (stereo partly shown) [Compound 2] as the entry.
2.5

Tell me its Zone of Clearing (cm) B. subtilis given CC(=O)NC1C(O)[C@H](O)[C@H](CO)O[C@@H]1O[C@@H]1O[C@H](C[C@@H](O)C2O[C@@H](n3cnc4c(N)ncnc43)[C@H](O)[C@@H]2O)C(O)C(O)[C@H]1NC(=O)/C=C/CCCCCCCCCC(C)C (stereo partly shown) [Compound 10] as the entry.
0

Tell me its Zone of Clearing (cm) B. subtilis given CC(=O)NC1C(O)[C@H](O)[C@H](CO)O[C@@H]1O[C@@H]1O[C@H](C[C@@H](O)C2O[C@@H](n3ccc(=O)[nH]c3=O)[C@H](O)[C@@H]2O)C(O)C(O)[C@H]1NC(=O)CCCCCCCCCCCC(C)C (stereo partly shown) [Compound 3] as the entry.
2.3

The values you see were collected from patent US10513533B2.
